molecular target: Beta-2 adrenergic receptor (Homo sapiens, UniProt P07550); test: Inhibitory activity against CHO cells expressing human Beta-2 adrenergic receptor with [125I]-iodocyanopindolol; type: cell-based
Sequence (P07550 whole entry): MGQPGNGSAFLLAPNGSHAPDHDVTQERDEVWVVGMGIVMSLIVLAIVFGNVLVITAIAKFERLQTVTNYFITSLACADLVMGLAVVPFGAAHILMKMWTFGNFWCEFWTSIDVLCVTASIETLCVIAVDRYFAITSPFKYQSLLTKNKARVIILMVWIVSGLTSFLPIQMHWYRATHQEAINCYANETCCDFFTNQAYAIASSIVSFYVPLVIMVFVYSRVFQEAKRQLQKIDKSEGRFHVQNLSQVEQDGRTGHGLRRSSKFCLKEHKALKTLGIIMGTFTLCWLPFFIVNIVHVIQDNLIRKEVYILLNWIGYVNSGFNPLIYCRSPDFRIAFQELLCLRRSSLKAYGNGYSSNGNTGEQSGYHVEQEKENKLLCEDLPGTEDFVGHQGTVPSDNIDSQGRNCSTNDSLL
ASSAY METRIC: IC50 (nM)
# number only, unit nM dropped from output

Please review the following examples before continuing.
COMPOUND | SYSTEM | MEASUREMENT UNIT | READOUT VALUE
CCCCCCNC(=O)Nc1ccc(S(=O)(=O)Nc2ccc3cc(CC4NCCc5cc(O)c(O)cc54)ccc3c2)cc1 (stereo not given) | Beta-2 adrenergic receptor (Homo sapiens, UniProt P07550) | nM | 300
CCCCCCNC(=O)Nc1ccc(S(=O)(=O)Nc2ccc(OCC3NCCc4cc(O)c(O)cc43)cc2)cc1 (stereo not given) | Beta-2 adrenergic receptor (Homo sapiens, UniProt P07550) | nM | 300
CCCCCCNC(=O)Nc1ccc(S(=O)(=O)Nc2ccc(CC3NCCc4cc(O)c(O)cc43)cc2)cc1 (stereo not given) | Beta-2 adrenergic receptor (Homo sapiens, UniProt P07550) | nM | 200

Okay, now this compound:
Query: Enter recorded IC50 with Beta-2 adrenergic receptor (Homo sapiens, UniProt P07550) for COc1c(I)cc(CC2NCCc3nc(N)sc32)cc1I (stereo not given) here.
Result: 56
